Where these numbers come from: patent US9598421B2

measured_target: Human PDE4A (Homo sapiens (Human))
Sequence (P27815 other isoform, or with tags, fused parts or gaps): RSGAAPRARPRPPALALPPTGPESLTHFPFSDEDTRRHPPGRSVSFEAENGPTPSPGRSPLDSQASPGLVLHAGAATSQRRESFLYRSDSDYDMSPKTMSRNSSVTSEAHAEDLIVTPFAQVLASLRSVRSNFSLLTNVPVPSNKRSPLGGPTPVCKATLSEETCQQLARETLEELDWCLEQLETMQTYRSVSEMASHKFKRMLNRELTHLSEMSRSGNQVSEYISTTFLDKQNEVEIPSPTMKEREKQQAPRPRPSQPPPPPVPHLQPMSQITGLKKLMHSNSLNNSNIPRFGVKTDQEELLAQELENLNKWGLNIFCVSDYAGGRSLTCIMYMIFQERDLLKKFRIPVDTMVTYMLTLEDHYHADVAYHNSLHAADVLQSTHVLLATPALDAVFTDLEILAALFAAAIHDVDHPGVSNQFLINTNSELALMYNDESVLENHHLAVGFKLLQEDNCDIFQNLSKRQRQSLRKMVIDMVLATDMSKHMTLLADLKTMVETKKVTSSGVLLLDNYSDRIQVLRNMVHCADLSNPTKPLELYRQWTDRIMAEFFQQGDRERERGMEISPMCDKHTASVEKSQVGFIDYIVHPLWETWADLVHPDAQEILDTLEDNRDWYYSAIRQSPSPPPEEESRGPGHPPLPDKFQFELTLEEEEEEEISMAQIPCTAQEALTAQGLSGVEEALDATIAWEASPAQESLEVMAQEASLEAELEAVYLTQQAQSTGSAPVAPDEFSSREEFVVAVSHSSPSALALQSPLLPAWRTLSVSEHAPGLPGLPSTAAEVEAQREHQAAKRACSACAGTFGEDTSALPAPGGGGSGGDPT
assay_info: PDE4A Scintillation Proximity Assay (SPA), inhibition of enzyme activity
Assay type: biochemical
experimental_context: human recombinant enzyme, 1 μM cAMP substrate, 30 min at 25° C., geometric mean of 2-9 determinations unless otherwise indicated, read-out: Human PDE4A FL
pIC50: −log10 of the molar value.
Values of pIC50 greater than or equal to 8 map to rule met; values below map to rule not met.

Solved cases below.
smiles_representation | measured_target | qualitative_label
O=C(NC1CC1)c1nc2cccnn2c1-c1ccc2ccnn2c1 | Human PDE4A (Homo sapiens (Human)) | rule not met
N#Cc1cc(F)c(-c2c(C(=O)NC3CC3)nc3cccnn23)cc1F | Human PDE4A (Homo sapiens (Human)) | rule met
CC1(NC(=O)c2nc3cccnn3c2-c2ccc(Cl)cc2)CC1 | Human PDE4A (Homo sapiens (Human)) | rule not met
O=C(c1nc2cccnn2c1-c1ccc2c(c1)CCO2)N1CCC1 | Human PDE4A (Homo sapiens (Human)) | rule not met
Cc1cc(Cl)c(F)cc1-c1c(C(=O)NC(C)C)nc2cccnn12 | Human PDE4A (Homo sapiens (Human)) | rule met
O=C(NC1CC1)c1nc2cccnn2c1-c1cc(F)c(Cl)c(F)c1 | Human PDE4A (Homo sapiens (Human)) | rule met

[Q] Is pIC50 for O=C(NC1CC1)c1nc2cccnn2c1-c1ccnc(C(F)(F)F)c1 at or above 8?
[A] rule not met
